# Tested on: Bacillus subtilis
# Method Description: Antimicrobial activity against Bacillus subtilis ATCC 6633 assessed as growth inhibition after 24 hr by NCCLS broth dilution method
# Assay type: functional
# Details: ATCC 6633, 24 h
Experimental Endpoint: log10(MIC) (log10 of the value in µg/mL)
All values: base-10 log of MIC in µg/mL.

Task: Identify measured log10(MIC) associated with "CN1CCN(c2cc3ncnc(Sc4nnc(-c5cccnc5)o4)c3cc2NC(=O)Nc2ccccc2)CC1"
Output: 1.10

Task: Identify measured log10(MIC) associated with "Cc1cccc(NC(=S)Nc2cc3c(Sc4nnc(-c5cccnc5)o4)ncnc3cc2N2CCN(C)CC2)c1"
Output: 1.40

Task: Identify measured log10(MIC) associated with CC1(C)S[C@@H]2[C@H](NC(=O)[C@H](N)c3ccccc3)C(=O)N2[C@H]1C(=O)O.O.O.O [AMPICILLIN TRIHYDRATE]
Output: -0.60

Task: Identify measured log10(MIC) associated with "CN1CCN(c2cc3ncnc(Sc4nnc(-c5cccnc5)o4)c3cc2NC(=O)Nc2ccc(-c3ccccc3)cc2)CC1"
Output: 2.00

Task: Identify measured log10(MIC) associated with "Cc1ccc(NC(=O)Nc2ccc3ncnc(Sc4nnc(-c5cccnc5)o4)c3c2)cc1"
Output: 1.88

Task: Identify measured log10(MIC) associated with "COc1ccccc1NC(=S)Nc1ccc2ncnc(Sc3nnc(-c4cccnc4)o3)c2c1"
Output: 1.40

Task: Identify measured log10(MIC) associated with "CN1CCN(c2cc3ncnc(Sc4nnc(-c5cccnc5)o4)c3cc2NC(=O)Nc2ccccc2Cl)CC1"
Output: 1.70

Task: Identify measured log10(MIC) associated with "Cc1ccccc1NC(=S)Nc1ccc2ncnc(Sc3nnc(-c4cccnc4)o3)c2c1"
Output: 1.70
